Hello, the source for this data is paper PMC9352680, in case you need it.

The entries below are paired with their reported pKd.
# MEASUREMENT TARGET: T1, PUF4 RNA-binding domain (Saccharomyces cerevisiae, UniProt P25339 537-888)
# T1 sequence: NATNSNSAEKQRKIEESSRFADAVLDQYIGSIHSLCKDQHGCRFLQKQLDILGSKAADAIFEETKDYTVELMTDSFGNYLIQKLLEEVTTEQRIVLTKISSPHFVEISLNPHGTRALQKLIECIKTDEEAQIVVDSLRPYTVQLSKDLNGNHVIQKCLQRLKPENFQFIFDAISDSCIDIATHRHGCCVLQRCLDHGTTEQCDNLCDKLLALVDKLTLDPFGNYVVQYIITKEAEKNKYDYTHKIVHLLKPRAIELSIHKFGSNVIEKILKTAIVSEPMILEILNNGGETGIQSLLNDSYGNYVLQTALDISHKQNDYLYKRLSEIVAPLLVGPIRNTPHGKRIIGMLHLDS
# METHOD DESCRIPTION: Mg; RNA-MaP; 20 mM Na-HEPES pH 7.4, 30 mM KOAc, 0.75 mM MgCl2, 0.1% Tween-20, 5% glycerol, 0.1 mg/mL BSA, 2 mM DTT; 25 C; 0.0125-409.6 nM protein
# DETAILS: tags: N-His6-TEV cleaved; C-SNAP kept, Cy3B-labelled; label: tethered on chip by stalled RNA polymerase
pKd: −log10 of the molar value.
ASSAY METRIC: pKd

| BINDER | ASSAY METRIC | REPORTED VALUE |
| --- | --- | --- |
| ACAAACCGUAUAUUAUUAGAACAAAC (ssRNA) [Id_ii_S3_P5E.3_K5.2_C5.2_[T-1G]_H5.2_A5.1_F5.1_T5.2_[T11G]] | pKd | 7.80 |
| UCUCUUUGUAUUAUCUUUAUCUCUU (ssRNA) [Ie_S1_P5E.1_K5.1_C5.1_H5.1_A5.1_F5.1_[+8CTT]_T5.1] | pKd | 7.72 |
| Id_ii_S2_P4E.2_K4.1_C4.2_[C-2G]_H4.1_A4.1_F4.1_T4.2_[G10T]_[T11A] (ssRNA) RNA: UUUGAUUAAUAUGAUAUCGUUCUUUCUGUUGUAUAUUAUAUUCUUUCUCGAUAUCAUAUUAAUCUUU | pKd | 9.03 |
| UCUCUUAUUGUAUAUACGUCUCUU (ssRNA) [Id_ii_S1_P3E.2_K3.1_C3.2_[C-2A]_H3.1_A3.1_F3.1_T3.2_[T9C]_[A10G]] | pKd | 7.57 |
| Ie_S2_P3E.2_K3.1_C3.2_H3.1_[+2T]_A3.1_F3.1_T3.2 (ssRNA) RNA: UUUGAUUAAUAUGAUAUCGUUCUUUCUCUUGUUAUAUAUAUUCUUUCUCGAUAUCAUAUUAAUCUUU | pKd | 8.09 |
| UCUCUUCAUAUAUAUUAGCUCUCUU (ssRNA) [Id_ii_S1_P4E.3_K4.2_C4.2_[T-1A]_H4.2_A4.1_F4.1_T4.2_[T11C]] | pKd | 8.08 |
| Id_ii_S2_P4E.4_K4.3_C4.2_H4.3_A4.1_F4.1_T4.2_[G10T]_[T11A] (ssRNA) RNA: UUUGAUUAAUAUGAUAUCGUUCUUUCUCUACACUAUUAUAUUCUUUCUCGAUAUCAUAUUAAUCUUU | pKd | 6.34 |
| UCUCUUUCAUGUAUAUUAGUUCUCUU (ssRNA) [Id_iii_S1_P4E.5_K4.1_C4.3_[T-1A]_H4.1_A4.1_F4.1_T4.2] | pKd | 9.48 |
| Ie_S4_P3E.2_K3.1_C3.2_H3.1_[+1CCTCT]_A3.1_F3.1_T3.2 (ssRNA) RNA: UUUGACAACUGAUCGUUCUUUCUCUUCCUCUGUAUAUAUAUUCUUUCUCGAUCAGUUGUCUUU | pKd | 9.05 |
| Ib_S2_P5E.1_K5.1_C5.1_H5.1_A5.1_F5.1_[T8C]_[A10G]_T5.1 (ssRNA) RNA: UUUGAUUAAUAUGAUAUCGUUCUUUCUUGUAUUACUGUUCUUUCUCGAUAUCAUAUUAAUCUUU | pKd | 7.19 |
| UCUCUUUGUAAAUUGUUCUCUU (ssRNA) [Ic_S1_P5E.1_K5.1_C5.1_H5.1_A5.1_[T5A]_[T6A]_[A7T]_F5.1_[T9G]_[A10T]_T5.1] | pKd | 7.94 |
| Ic_S4_P5E.1_K5.1_C5.1_H5.1_A5.1_[T6A]_[A7G]_F5.1_[T9A]_[A10C]_T5.1 (ssRNA) RNA: UUUGACAACUGAUCGUUCUUUCUUGUAUAGUACUUCUUUCUCGAUCAGUUGUCUUU | pKd | 8.40 |
